target: Gal(b1-4)GlcNAc(b1-3)Gal(b1-4)GlcNAc(b1-2)[Gal(b1-4)GlcNAc(b1-3)Gal(b1-4)GlcNAc(b1-6)]Man(a1-6)[Gal(b1-4)GlcNAc(b1-3)Gal(b1-4)GlcNAc(b1-2)Man(a1-3)]Man(b1-4)GlcNAc(b1-4)[Fuc(a1-6)]GlcNAc; experiment: glycan array binding signal (z-score within array); higher = stronger binding; settings: glycan notation: IUPAC condensed, linker removed
This is one part of a sample in which the strongest signals are shown more often than they occur.
Reported values of glycan array binding signal (z-score) for individual entries
Give the figure only, with no unit attached.

binder	glycan array binding signal (z-score)
Nc3LysM (protein) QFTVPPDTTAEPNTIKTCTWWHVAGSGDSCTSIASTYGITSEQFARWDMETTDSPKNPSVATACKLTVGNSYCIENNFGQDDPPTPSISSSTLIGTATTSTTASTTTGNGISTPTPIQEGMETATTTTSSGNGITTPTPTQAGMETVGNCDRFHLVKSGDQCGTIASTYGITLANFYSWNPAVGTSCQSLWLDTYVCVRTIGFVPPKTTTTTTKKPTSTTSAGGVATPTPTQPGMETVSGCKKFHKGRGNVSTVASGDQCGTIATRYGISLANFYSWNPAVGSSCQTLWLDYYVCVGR	-0.048
WGA (Triticum vulgare) (protein) QRCGEQGSNMECPNNLCCSQYGYCGMGGDYCGKGCQNGACWTSKRCGSQAGGATCPNNHCCSQYGHCGFGAEYCGAGCQGGPCRADIKCGSQSGGKLCPNNLCCSQWGFCGLGSEFCGGGCQSGACSTDKPCGKDAGGRVCTNNYCCSKWGSCGIGPGYCGAGCQSGGCDAVFAGAITANSTLLAE	-0.132
rCNL (Clitocybe nebularis), B2ZRS9 (protein) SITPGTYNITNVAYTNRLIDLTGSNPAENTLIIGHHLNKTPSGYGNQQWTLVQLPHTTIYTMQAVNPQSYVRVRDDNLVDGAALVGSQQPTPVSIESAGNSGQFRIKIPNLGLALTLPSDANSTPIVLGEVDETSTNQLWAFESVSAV	-0.147

Next up:
## Task State the recorded glycan array binding signal (z-score) for this entry: CM2 (Cordyceps militaris) (protein) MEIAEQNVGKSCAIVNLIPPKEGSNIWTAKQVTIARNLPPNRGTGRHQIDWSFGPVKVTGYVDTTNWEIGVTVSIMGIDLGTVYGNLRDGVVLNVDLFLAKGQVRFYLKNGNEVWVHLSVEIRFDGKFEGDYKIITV
## Result 2.29
